Sourced from the supplement of paper PMC12042874

experiment: amyloid nucleation score (Sup35N fusion, yeast selection) (log enrichment); library NNK3; higher = more nucleation; inactive = no reads after selection;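 also: zero at mode of non-aggregating sequences after 7 days selection at 30°C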
Reported Endpoint: amyloid nucleation score
Please state the value as a number alone, without comment.

Substance | amyloid nucleation score
YMNSTFQMFD | 0.829
SYQVCSKQTPHFSLSFIMFV | -0.488
CSVGSFFRFDIIYWKYAGSL | -0.2

Q) Return value of amyloid nucleation score for input `SIFCGCLVLLTGNYLLICIS` , no commentary.
A) 1.13

Q) Return value of amyloid nucleation score for input `CFLYYRM` , no commentary.
A) 1.17

====

experiment: amyloid nucleation score (Sup35N fusion, yeast selection) (log enrichment); library NNK3; higher = more nucleation; inactive = no reads after selection
Reported Endpoint: amyloid nucleation score

Worked set:
Substance | Measurement
FAMMDELRRMWARSACSTRV | inactive
LVSTEKWEYLGQCARRELRF | -0.884
VGLLVMSVGIERTLWE | inactive
NRSEEIFVSSATELTRLIVH | inactive

Q) Return value of amyloid nucleation score for input `AALHKRTAAQNVPKELGLTM` , no commentary.
A) 0.227

Q) Return value of amyloid nucleation score for input `CSIGRSTVDVRWGEGLWNRL` , no commentary.
A) inactive

Q) Return value of amyloid nucleation score for input `HVVIARTNRGDYNCFSSDGG` , no commentary.
A) inactive

Q) Return value of amyloid nucleation score for input `FSFQQSWVSY` , no commentary.
A) inactive

Q) Return value of amyloid nucleation score for input `VDNHACPWTGGLHFRKLWNG` , no commentary.
A) inactive

Q) Return value of amyloid nucleation score for input `VLISVLSRLRCMSGGLYTPN` , no commentary.
A) inactive
